test system: MYB mRNA; experiment: Splicing RT-qPCR assay, canonical (CJ) and alternative (AJ) junction mRNA, K562 cells; format: cell-based; conditions: Homo sapiens, K562.3 cells, 24 hours, read-out: MYB AJ (AC50, increase in AJ mRNA)
measurement type: AC50

COc1c(NC(=O)c2ccc(N3CCNCC3)c3cc[nH]c23)cn2cc(C)nc2c1F :: > 10 µM
Cc1cn2cc(NC(=O)c3ccc(N4CC[C@H](NCC56CC(CO5)C6)C4)c4cn(C)nc34)cc(F)c2n1 :: 0.1 to 1 µM
Cc1nc2c(F)cc(NC(=O)c3ccc(N4CCC(NC5CC5)CC4)c4cn(C)nc34)cn2c1C :: > 10 µM

Next item in the queue.
Query :: What AC50 value was documented for this molecule, CCNC1CCN(c2ccc(C(=O)Nc3cc(F)c4nc(CO)cn4c3)c3nn(C)cc23)CC1 ?
Result :: 1 to 10 µM

* * *

test system: MYB mRNA; experiment: Gene panel canonical junction qPCR assay, decrease in CJ mRNA, Table 3; type: cell-based; details: decrease in canonical junction (CJ) mRNA, gene panel qPCR, Table 3
measurement type: IC50

Check out these entries, answers already filled in.
Cc1cn2cc(NC(=O)c3ccc(N4CCNC(C)C4)c4cn(C)nc34)nc2c(C)n1 (stereo not drawn) :: 0.1 to 1 µM
COc1cc2nn(C)cc2cc1NC(=O)c1ccc(N2CCNC(C)C2)c2cn(C)nc12 (stereo not drawn) :: 0.1 to 1 µM
CCNC1CCN(c2cc(F)c(C(=O)Nc3cn4cc(C)nc4cc3OC)c3nn(C)cc23)CC1 :: < 0.1 µM
CCNC1CCN(c2ccc(C(=O)Nc3cc(F)c4nc(CC)cn4c3)c3nn(C)cc23)CC1 :: 1 to 10 µM
COc1cc2nn(C)cc2cc1NC(=O)c1c(F)cc(N2[C@@H]3CC[C@H]2C[C@H](NC2CC2)C3)c2cn(C)nc12 :: 1 to 10 µM
Cc1cn2cc(NC(=O)c3ccc(N4CCC(NC5CC5)CC4)c4cn(C)nc34)cc2c(CNS(C)(=O)=O)n1 :: > 10 µM
Cc1cn2cc(NC(=O)c3ccc(N4CC[C@H](NCC56CC(CO5)C6)C4)c4cn(C)nc34)cc(F)c2n1 :: 0.1 to 1 µM
Cn1cc2c(N3CCC(NC4CC4)CC3)cc(F)c(C(=O)Nc3ccnnc3O)c2n1 :: > 10 µM
COc1cc2nn(C)cc2cc1NC(=O)c1c(F)cc(N2CC3(CNC3)C2)c2cn(C)nc12 :: 1 to 10 µM
Cc1cn2cc(NC(=O)c3c(F)cc(N4CCC(NC5CC5)CC4)c4cn(C)nc34)cc(Oc3ccccn3)c2n1 :: 0.1 to 1 µM

Query :: Which value of IC50 has been reported for C#CCCC1(CCN2CCN(c3ccc(C(=O)Nc4cc(F)c5nc(C)cn5c4)c4nn(C)cc34)CC2)N=N1 [Compound 376, bis(2,2,2-trifluoroacetate)] in the records?
Result :: 0.1 to 1 µM

Query :: Fill in: IC50 of Cc1cn2cc(NC(=O)c3c(F)cc(NCC4CCNCC4)c4cn(C)nc34)nc2c(C)n1 is ___
Result :: > 10 µM

* * *

tested on: HTT mRNA; test: Gene panel canonical junction qPCR assay, decrease in CJ mRNA, Table 3; type: cell-based; conditions: decrease in CJ mRNA levels, canonical junction qPCR, gene panel
pIC50: −log10 of the molar value.
measurement type: pIC50

COc1cc(N2CCC(NC3CC3)CC2)c2cn(C)nc2c1C(=O)Nc1cc(CNS(C)(=O)=O)c2nn(C)cc2c1 :: < 5.00
Cn1cc2cc(NC(=O)c3ccc(N4CCC(NC5CC5)CC4)c4cn(C)nc34)cc(CNC(=N)N)c2n1 :: < 5.00
CCNC1CCN(c2ccc(C(=O)Nc3cc(F)c4nn(C)cc4c3)c3nc(OC)sc23)CC1 [Compound 704, 2,2,2-trifluoroacetate] :: 6.00 to 7.00
COc1nc2c(C(=O)Nc3cc4c(C)nc(C)cn4n3)ccc(N3C[C@H](C)N[C@@H](C)C3)c2s1 :: 5.00 to 6.00
Cc1cn2cc(NC(=O)c3ccc(N4CCC(NC5CC5)CC4)c4cn(C)nc34)nc2c(CN2CCCCS2(=O)=O)n1 :: < 5.00
COc1c(NC(=O)c2c(F)cc(N3CCNCC3)c3cn[nH]c23)cn2cc(C)nc2c1F :: 6.00 to 7.00
Cn1cc2cc(NC(=O)c3ccc(N4CCCCC4)c4cn(C)nc34)cc(CNS(C)(=O)=O)c2n1 :: < 5.00
Cc1cn2cc(NC(=O)c3ccc(N4CCC(NC5CC5)CC4)n4nc(C)nc34)nc2c(C)n1 :: 6.00 to 7.00

Query :: So what does the record say about pIC50 for COc1cc2nc(C)cn2cc1NC(=O)c1c(F)cc(N2CCC(NC3CC3)CC2)c2cc(C)nn12 ?
Result :: < 5.00

Query :: Given COc1cc2nn(C)cc2cc1NC(=O)c1c(F)cc(N2CCC(NC3CC3)CC2)c2nc(C)sc12 , state its recorded pIC50.
Result :: 5.00 to 6.00

Query :: Looking for the measured pIC50 of COc1cc2c(N3CCC(NC4CC4)CC3)ccc(C(=O)Nc3cn4cc(C)nc(C)c4n3)n2n1 , can you help?
Result :: < 5.00

Query :: Fill blank: measured pIC50 of the compound Cc1cn2cc(NC(=O)c3cnc(N4CCC(NC5CC5)CC4)c4cn(C)nc34)nc2c(C)n1 is ____.
Result :: < 5.00

Query :: Entry COc1nc2c(N3CCC(NC4CC4)CC3)ccc(C(=O)Nc3cn4cc(C)nc(C)c4n3)c2o1 : reported pIC50 = ?
Result :: < 5.00

Query :: Need pIC50 of COc1cc2c(N3CCC(NC4CC4)CC3)ccc(C(=O)Nc3cc(CNS(C)(=O)=O)c4nn(C)cc4c3)n2n1 , thanks.
Result :: 5.00 to 6.00

Query :: Quick one: pIC50 for CNCC1CN(c2ccc(C(=O)Nc3cc(F)c4nn(C)cc4c3)c3nc(OC)sc23)C1 ?
Result :: > 7.00

* * *

Reported pIC50 values follow for various compounds
system: HTT mRNA; test: Splicing RT-qPCR assay (THP), Table 2A; type: cell-based; conditions: Table 2A (THP), CJ mRNA decrease, read-out: HTT CJ (decrease in canonical junction mRNA, IC50)
pIC50: −log10 of the molar value.

The following compounds have reported results that may help.
Cc1cn2cc(NC(=O)c3c(F)cc(N4CCC(N)CC4)c4cn(C)nc34)nc2c(C)n1 [Compound 347, 2,2,2-trifluoroacetate] :: 5.00 to 6.00
CCNC1CCN(c2cc(F)c(C(=O)Nc3cn4c(Cl)c(C)nc4c(F)c3OC)c3nn(C)cc23)CC1 :: < 5.00
COc1cc2nn(C)cc2cc1NC(=O)c1ccc(N2CC3(CCNCC3)C2)c2cn(C)nc12 :: 5.00 to 6.00
CCNC1CCN(c2ccc(C(=O)Nc3cc4cn(C)nc4cc3OC)c3[nH]ccc23)CC1 :: < 5.00
Cc1cn2cc(NC(=O)c3ccc(N4CCC5(CCN5)CC4)c4cn(C)nc34)nc2c(C)n1 :: < 5.00

Query :: What measured pIC50 goes with CCNC1CCN(c2cc(F)c(C(=O)Nc3cn4cc(C#N)nc(C)c4n3)c3nn(C)cc23)CC1 ?
Result :: 6.00 to 7.00

Query :: Record request: pIC50 value, item COc1cc2nn(C)c(C)c2cc1NC(=O)c1c(F)cc(N2CCC(NC3CC3)CC2)c2cn(C)nc12
Result :: < 5.00

* * *

Some compounds, each annotated with its measured pIC50.
test system: MYB mRNA; assay: Gene panel canonical junction qPCR assay, decrease in CJ mRNA, Table 3; assay type: cell-based; conditions: decrease in canonical junction (CJ) mRNA, gene panel qPCR, Table 3
pIC50: −log10 of the molar value.

These recorded examples may help you get a feel for the data.
Cc1cn2cc(NC(=O)c3ccc(OC4CCNC4)c4cn(C)nc34)nc2c(C)n1 (stereo not shown) :: < 5.00
COc1cc2nc(CF)cn2cc1NC(=O)c1c(F)cc(N2CCC(NC3CC3)CC2)c2cn(C)nc12 :: > 7.00
CCNCC1CCN(c2cc(F)c(C(=O)Nc3cc4cn(C)nc4cc3OC)c3nn(C)cc23)C1 (stereo not shown) :: 6.00 to 7.00

Query :: Provide value of pIC50 for this record tested with MYB mRNA: Cc1cn2cc(NC(=O)c3ccc(N4C[C@@H](C)N[C@@H](C)C4)c4nnn(C)c34)cc(F)c2n1
Result :: < 5.00

Query :: So what pIC50 did CCNC1CCN(c2ccc(C(=O)Nc3cc4cn(C)nc4cc3OC)c3nn(C)cc23)CC1C (stereo not shown) get with MYB mRNA?
Result :: 6.00 to 7.00

Query :: Form: Entry = CCNC1CCN(c2ccc(C(=O)Nc3cc(OCc4ccccc4)c4nc(C)cn4c3)c3nn(C)cc23)CC1 | System = MYB mRNA | pIC50 = ____
Result :: 5.00 to 6.00

Query :: Given the entry COc1c(NC(=O)c2c(F)cc(N3CCC(NC4CC4)CC3)c3cn(C)nc23)cc2cn(C)nc2c1F , what pIC50 was observed with MYB mRNA?
Result :: > 7.00
